- Tested on: A549 lung cancer cells
- Assay Procedure: Cell proliferation (MTT assay) in A549 lung cancer cells
- Assay type: cell-based, human
- Experimental Context: A549, ratio of IC50 to that of 1 (Table 2)
Measured Parameter: Fold difference relative to 1

- Molecule: "Cc1cc(C)c(-n2c3c([n+](-c4c(C)cc(C)cc4C)[c]2[Au-][Cl])C(=O)c2ccccc2C3=O)c(C)c1 [Complex 3]"
  Measured Result: 165
- Molecule: "Cc1cc(C)c(-n2c[n+](-c3c(C)cc(C)cc3C)c3c2C(=O)c2ccccc2C3=O)c(C)c1 [4[H][Cl], 1,3-dimesitylnaphthoquinimidazolium]"
  Measured Result: 13.6
- Molecule: "Cc1cc(C)c(-[n+]2ccn(Cc3ccccc3)[c]2[Au-][c]2n(Cc3ccccc3)cc[n+]2-c2c(C)cc(C)cc2C)c(C)c1.[Cl-] [Complex 5, reference compound]"
  Measured Result: 9.72
- Molecule: "Cc1cc(C)c(-n2c3c(n(-c4c(C)cc(C)cc4C)[c]2=[Au-]=[c]2n(-c4c(C)cc(C)cc4C)c4c(n2-c2c(C)cc(C)cc2C)C(=O)c2ccccc2C4=O)C(=O)c2ccccc2C3=O)c(C)c1.[Cl][Ag-][Cl] [Complex 1]"
  Measured Result: 1
- Molecule: "Cc1cc(C)c(-n2c3c(n(-c4c(C)cc(C)cc4C)[c]2=[Au]([Cl])=[c]2n(-c4c(C)cc(C)cc4C)c4c(n2-c2c(C)cc(C)cc2C)C(=O)c2ccccc2C4=O)C(=O)c2ccccc2C3=O)c(C)c1 [Complex 2]"
  Measured Result: 1
- Molecule: "CC(=O)OC[C@H]1O[C@@H]([S-])[C@H](OC(C)=O)[C@@H](OC(C)=O)[C@@H]1OC(C)=O.CCP(CC)CC.[Au+] [Auranofin, reference compound]"
  Measured Result: 22.9
